# System: Enterovirus C
# Procedure summary: Antiviral activity against Poliovirus infected in human HeLaS3 cells assessed as inhibition of viral replication treated 1 hr before infection measured after 2 days
# Assay type: functional, organism-based
# Reported conditions: HeLa S3
Measurement kind: IC50 (nM)
Record the value in nM, omitting the unit from your answer.

// solved cases for IC50 follow
Cc1ncnc2c1ncn2[C@@H]1O[C@H](CO)[C@@H](O)[C@H]1O = 1010
Nc1ncnc2c1ccn2[C@@H]1O[C@H](CO)[C@@H](O)[C@H]1O = 30

Please look at the following molecule next.
Sample Cc1ncnc2c1ccn2[C@@H]1O[C@H](CO)[C@@H](O)[C@H]1O ; IC50 observed: 11

The origin of these recorded values is ChEMBL document CHEMBL1269004.
